SYSTEM: Estrogen receptor beta (Homo sapiens) (UniProt Q92731)
Sequence (Q92731 whole entry, looked up, the tested form may be a part): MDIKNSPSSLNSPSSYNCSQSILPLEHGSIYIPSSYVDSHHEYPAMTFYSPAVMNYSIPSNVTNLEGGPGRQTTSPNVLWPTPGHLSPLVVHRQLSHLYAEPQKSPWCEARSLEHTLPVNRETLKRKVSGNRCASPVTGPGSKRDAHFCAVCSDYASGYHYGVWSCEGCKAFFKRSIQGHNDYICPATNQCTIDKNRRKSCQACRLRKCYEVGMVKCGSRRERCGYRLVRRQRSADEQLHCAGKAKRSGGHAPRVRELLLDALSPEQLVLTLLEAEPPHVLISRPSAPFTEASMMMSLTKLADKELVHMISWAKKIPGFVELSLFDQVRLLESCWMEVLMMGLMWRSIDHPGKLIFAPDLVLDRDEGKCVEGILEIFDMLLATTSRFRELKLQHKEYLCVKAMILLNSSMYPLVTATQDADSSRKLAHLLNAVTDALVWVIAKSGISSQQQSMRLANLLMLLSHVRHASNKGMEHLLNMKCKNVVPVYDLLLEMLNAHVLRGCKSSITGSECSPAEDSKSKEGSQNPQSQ
MEASUREMENT_NOTES: OT_ER_ERbERb_1440: Odyssey Thera (OT) 24-hour HEK293T Protein-Complementation Assay for Estrogen Receptor-beta/-beta Homodimer (AID 2283380);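 further: fluorescence gain from ER beta LBD homodimer complementation read by laser scanning cytometry; scored as signal increase over DMSO baseline for both agonists and antagonists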
Activity calls are given as the source filed them. How the source made its calls: active means hit-call score of the fitted dose curve at least 0.9, where 1 is the maximum; inconclusive means response in the unintended direction; inactive means score below 0.9.
Outcomes: active, inactive

COMPOUND: N#CCCC(Br)(C#N)CBr (centres undefined)
GROUP: active
--
COMPOUND: CC(C)N(C(=O)CCl)c1ccccc1
GROUP: inactive
--
COMPOUND: Nc1ncn[nH]1
GROUP: inactive
--
COMPOUND: CC(O)(CS(=O)(=O)c1ccc(F)cc1)C(=O)Nc1ccc(C#N)c(C(F)(F)F)c1 (centres undefined)
GROUP: active
--
COMPOUND: COC(=O)Nc1cccc(OC(=O)Nc2cccc(C)c2)c1
GROUP: inactive
--
COMPOUND: O=C(NC(=O)c1c(F)cccc1F)Nc1cc(Cl)c(OC(F)(F)C(F)C(F)(F)F)cc1Cl (centres undefined)
GROUP: inactive
--
COMPOUND: CC(=Cc1ccccc1)[N+](=O)[O-]
GROUP: inactive
--
COMPOUND: COCCl
GROUP: inactive
--
COMPOUND: O=C(O)COc1ccc(Cl)cc1
GROUP: inactive
--
COMPOUND: CCOCn1c(-c2ccc(Cl)cc2)c(C#N)c(Br)c1C(F)(F)F
GROUP: active
--
COMPOUND: O=[N+]([O-])c1ccccc1O
GROUP: inactive
--
COMPOUND: Cc1cc(C)cc(C)c1
GROUP: inactive
--
COMPOUND: CCC[CH2][Sn]([Cl])([Cl])[CH2]CCC
GROUP: inactive
--
COMPOUND: CC(C)=CC1C(C(=O)OCc2cccc(Oc3ccccc3)c2)C1(C)C (centres undefined)
GROUP: inactive

====

MEASUREMENT_NOTES: CCTE_Shafer_MEA_acute_firing_rate_mean: CCTE's Neural Acute Assay for Mean Firing Rate, Shafer Lab (AID 2284009);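 further: analyzed for loss of signal so actives lower firing rate relative to DMSO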
Active and inactive are the calls of the source. Rule for the calls: active = hit-call score of the fitted dose curve at least 0.9, where 1 is the maximum; inactive = score below 0.9.
Outcomes: 1.0 = active, 0.0 = inactive

SMILES_CODE: CCCCOC(=O)COC(=O)c1ccccc1C(=O)OCCCC
GROUP: 1.0
--
SMILES_CODE: CC(C)(C)c1ccccc1O
GROUP: 1.0
--
SMILES_CODE: Oc1ccc(Cc2ccc(O)cc2)cc1
GROUP: 1.0
--
SMILES_CODE: Clc1cccc(Cl)c1Cl
GROUP: 0.0
--
SMILES_CODE: Cc1cc(C(F)(C(F)(F)F)C(F)(F)F)ccc1NC(=O)c1cccc(I)c1C(=O)NC(C)(C)CS(C)(=O)=O
GROUP: 1.0
--
SMILES_CODE: CCCCCCCCCCCCc1cccc(S(=O)(=O)O)c1
GROUP: 0.0
--
SMILES_CODE: CS(=O)(=O)c1ccc(C(=O)C2C(=O)CCCC2=O)c(Cl)c1COCC(F)(F)F
GROUP: 0.0
--
SMILES_CODE: Oc1cc(Cl)c(Cl)cc1Cl
GROUP: 1.0
--
SMILES_CODE: CN(C)C(=S)S
GROUP: 0.0

====

MEASUREMENT_NOTES: ATG_Sox_CIS: Attagene CIS-FACTORIAL HepG2 Assay for human SRY-box transcription factor (SOX) (AID 2282960)
CONDITION_CONTEXT: HepG2 Attagene cis-factorial SOX reporter, mRNA; actives raise or lower the signal
Active and inactive are the calls of the source. Rule for the calls: active = hit-call score of the fitted dose curve at least 0.9, where 1 is the maximum; inactive = score below 0.9.
Possible outcomes: Y (active), N (inactive)

COMPOUND: CC1(C)[C@H](C(=O)O[C@H](C#N)c2cccc(Oc3ccccc3)c2)[C@@H]1/C=C(\Cl)C(F)(F)F
GROUP: N

COMPOUND: Cc1cc(SCc2sc(-c3ccc(C(F)(F)F)c(F)c3)nc2C)ccc1OCC(=O)O
GROUP: N

COMPOUND: O=S(=O)(c1ccc(Cl)cc1)c1cc(Cl)c(Cl)cc1Cl
GROUP: N

COMPOUND: Cc1cc(-c2cc(C)c(N)c(C)c2)cc(C)c1N
GROUP: N

COMPOUND: CC(=O)C(F)(F)C(F)(F)F
GROUP: N

COMPOUND: O=S(=O)(C(Cl)(Cl)Cl)C(Cl)(Cl)Cl
GROUP: Y

COMPOUND: OCCCCO
GROUP: N

COMPOUND: Oc1cc(Cl)c(Cl)cc1Cl
GROUP: N

COMPOUND: CS(=O)(=O)c1ccc(C(=O)C2C(=O)CCCC2=O)c(Cl)c1COCC(F)(F)F
GROUP: N

COMPOUND: Brc1ccc(Oc2c(Br)cc(Br)cc2Br)c(Br)c1
GROUP: N

COMPOUND: O=C(NC(=O)c1c(F)cccc1F)Nc1ccc(Cl)cc1
GROUP: N

COMPOUND: CCCCN(CCCC)C(=S)[S-].CCCCN(CCCC)C(=S)[S-].[Ni+2]
GROUP: N

COMPOUND: CC(C)(C)c1cc([N+](=O)[O-])cc(C(C)(C)C)c1O
GROUP: N

COMPOUND: CCOC(=O)CCN(SN(C)C(=O)Oc1cccc2c1OC(C)(C)C2)C(C)C
GROUP: N

COMPOUND: CC1(C)[C@H](/C=C2\CCSC2=O)[C@@H]1C(=O)OCc1coc(Cc2ccccc2)c1
GROUP: N

COMPOUND: Cc1ccc2nc3sc(=O)sc3nc2c1
GROUP: Y

COMPOUND: CCCCCCCCCCCCN(C)C
GROUP: N

COMPOUND: NC(=O)c1ccc(N)nc1
GROUP: N

COMPOUND: CC(C=O)Cc1ccc2c(c1)OCO2 (stereo unspecified)
GROUP: N

COMPOUND: C=CCOC(N)=O
GROUP: N

COMPOUND: CCCCC(CC)C(=O)Cl (stereo unspecified)
GROUP: N

COMPOUND: Nc1c(Oc2ccccc2)cc(O)c2c1C(=O)c1ccccc1C2=O
GROUP: N

COMPOUND: C=CCc1ccccc1O
GROUP: N

COMPOUND: O=C=Nc1ccc(Cl)cc1
GROUP: N

COMPOUND: O=[N+]([O-])c1c2ccccc2cc2ccccc12
GROUP: N

COMPOUND: Oc1c(Br)cc(Br)cc1Br
GROUP: N

COMPOUND: OCCN(CCO)CCO
GROUP: N

COMPOUND: Nc1cccnc1
GROUP: N

COMPOUND: CCOCn1c(-c2ccc(Cl)cc2)c(C#N)c(Br)c1C(F)(F)F
GROUP: Y

COMPOUND: C[As+](C)(C)CC(=O)[O-]
GROUP: N

COMPOUND: C=C(C)[C@@H]1CC=C(C=O)CC1
GROUP: N

COMPOUND: O=S(=O)(Oc1ccc(Cl)cc1)c1ccc(Cl)cc1
GROUP: N

COMPOUND: Clc1cccc(Cl)c1
GROUP: N

COMPOUND: ClCc1ccccc1Cl
GROUP: Y

COMPOUND: [Cl][Sn]([c]1ccccc1)([c]1ccccc1)[c]1ccccc1
GROUP: Y

COMPOUND: O=c1nc(O)n(Cl)c(=O)n1Cl
GROUP: N

COMPOUND: CN(C1CCCCC1)C1CCCCC1
GROUP: N

COMPOUND: Cc1ccc(CCl)cc1
GROUP: N

COMPOUND: c1csc(-c2ccc(-c3cccs3)s2)c1
GROUP: N

COMPOUND: Nc1nc(N)nc(Cl)n1
GROUP: N

COMPOUND: N#CS
GROUP: N

COMPOUND: CC(O)(CS(=O)(=O)c1ccc(F)cc1)C(=O)Nc1ccc(C#N)c(C(F)(F)F)c1 (stereo unspecified)
GROUP: N

COMPOUND: O=C1c2ccccc2C(=O)C1C(=O)C(c1ccccc1)c1ccc(Cl)cc1 (stereo unspecified)
GROUP: Y

COMPOUND: CC(C)CP(=S)(S)CC(C)C
GROUP: N

COMPOUND: O=C(O)C1(c2ccc3c(c2)OC[C@H](Cc2ccc(-c4ccccc4)cc2)[C@H]3O)CCCC1
GROUP: N

COMPOUND: ClCCN1CCOCC1
GROUP: N

COMPOUND: Brc1c(Br)c(Br)c(Oc2c(Br)c(Br)c(Br)c(Br)c2Br)c(Br)c1Br
GROUP: N

COMPOUND: CCOC(=O)C(SP(=S)(OC)OC)c1ccccc1 (stereo unspecified)
GROUP: N

COMPOUND: O=C(CCl)Nc1ccccc1
GROUP: Y

COMPOUND: BrCc1ccc(Br)cc1
GROUP: N

COMPOUND: CC1(C)COP(Oc2ccccc2)OC1
GROUP: N

COMPOUND: CC(C)(C1CCC(O)CC1)C1CCC(O)CC1 (stereo unspecified)
GROUP: N

COMPOUND: C1CCC(C2CCCCC2)CC1
GROUP: N

COMPOUND: Cc1cc(Cl)ccc1OC(C)C(=O)O (stereo unspecified)
GROUP: N

COMPOUND: COC(F)(C(F)(F)C(F)(F)F)C(F)(C(F)(F)F)C(F)(F)F (stereo unspecified)
GROUP: N

COMPOUND: N#CCCC(Br)(C#N)CBr (stereo unspecified)
GROUP: Y
